# system tested: T1, human macrophage scavenger receptor 1 (MSR1) (human, UniProt P21757 1-451)
# T1 sequence (looked up): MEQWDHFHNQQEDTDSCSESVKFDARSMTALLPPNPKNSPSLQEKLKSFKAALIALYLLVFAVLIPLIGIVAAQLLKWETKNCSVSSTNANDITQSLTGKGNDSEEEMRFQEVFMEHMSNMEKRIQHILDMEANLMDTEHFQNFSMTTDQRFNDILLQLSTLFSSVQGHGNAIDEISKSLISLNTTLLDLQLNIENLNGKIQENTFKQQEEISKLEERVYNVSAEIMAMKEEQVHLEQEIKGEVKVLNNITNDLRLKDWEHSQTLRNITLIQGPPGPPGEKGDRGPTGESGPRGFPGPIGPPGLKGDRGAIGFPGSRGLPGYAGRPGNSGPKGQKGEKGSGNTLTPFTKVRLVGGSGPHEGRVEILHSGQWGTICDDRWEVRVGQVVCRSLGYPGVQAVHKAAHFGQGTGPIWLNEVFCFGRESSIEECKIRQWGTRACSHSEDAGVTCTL
# assay: cell-based or functional assay
Short version: S/N (highest RLU / RLU in untreated wells), HEK293/GRLuc/MSR1 cells at least 100 is T, less is F.

Solved cases below.
H1H21234N-N297Q-L1-PIII-1 (antibody, V domains shown, heavy-chain constant region (not part of this entry): N297Q (EU); linker-payload L1-PIII-1 (DIBAC-suc-PEG4-vcPAB-PIII-1, payload 6,11-2F-budesonide III) clicked onto azido-PEG3-amine on glutamines; DAR 4) VH: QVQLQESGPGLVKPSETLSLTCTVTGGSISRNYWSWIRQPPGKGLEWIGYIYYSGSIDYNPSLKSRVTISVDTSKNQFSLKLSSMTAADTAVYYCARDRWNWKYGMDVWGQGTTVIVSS VL: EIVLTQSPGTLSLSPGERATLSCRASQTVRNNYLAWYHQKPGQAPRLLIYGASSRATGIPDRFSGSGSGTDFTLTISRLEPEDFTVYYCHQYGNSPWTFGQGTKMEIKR = T
H1H21234N-N297Q-L5-PIII-1 (antibody, V domains shown, heavy-chain constant region (not part of this entry): N297Q (EU); linker-payload L5-PIII-1 (DIBAC-suc-SGGG-PIII-1) clicked onto azido-PEG3-amine on glutamines; DAR 4) VH: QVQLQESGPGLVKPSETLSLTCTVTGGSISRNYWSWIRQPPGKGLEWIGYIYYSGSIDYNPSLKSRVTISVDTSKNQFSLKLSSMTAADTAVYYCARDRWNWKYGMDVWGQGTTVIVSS VL: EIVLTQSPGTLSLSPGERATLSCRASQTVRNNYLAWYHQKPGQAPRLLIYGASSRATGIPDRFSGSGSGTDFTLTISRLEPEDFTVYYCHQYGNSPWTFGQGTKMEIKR = T
H1H21234N-N297Q-L2-PIII-1 (antibody, V domains shown, heavy-chain constant region (not part of this entry): N297Q (EU); linker-payload L2-PIII-1 (DIBAC-suc-PEG4-Glu-vcPAB-PIII-1) clicked onto azido-PEG3-amine on glutamines; DAR 4) VH: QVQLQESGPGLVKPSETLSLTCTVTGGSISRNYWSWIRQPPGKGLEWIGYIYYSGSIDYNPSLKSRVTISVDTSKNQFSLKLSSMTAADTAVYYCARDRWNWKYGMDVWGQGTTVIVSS VL: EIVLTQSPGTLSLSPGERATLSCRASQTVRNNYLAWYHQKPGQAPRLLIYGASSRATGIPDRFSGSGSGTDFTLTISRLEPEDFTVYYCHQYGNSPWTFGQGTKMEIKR = F
H1H21234N-N297Q-L3-PIII-1 (antibody, V domains shown, heavy-chain constant region (not part of this entry): N297Q (EU); linker-payload L3-PIII-1 (DIBAC-suc-PEG4-GGF-PIII-1) clicked onto azido-PEG3-amine on glutamines; DAR 4) VH: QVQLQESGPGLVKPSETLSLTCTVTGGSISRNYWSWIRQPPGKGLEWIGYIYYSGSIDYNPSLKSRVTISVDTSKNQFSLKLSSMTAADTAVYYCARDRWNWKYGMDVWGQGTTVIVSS VL: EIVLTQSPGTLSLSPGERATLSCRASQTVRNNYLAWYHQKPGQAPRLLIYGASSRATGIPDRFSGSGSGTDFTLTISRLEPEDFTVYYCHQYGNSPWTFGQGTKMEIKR = T
H1H21234N-N297Q-L1-PII-1 (antibody, V domains shown, heavy-chain constant region (not part of this entry): N297Q (EU); linker-payload L1-PII-1 (DIBAC-suc-PEG4-vcPAB-PII-1, payload budesonide) clicked onto azido-PEG3-amine on glutamines; DAR 4) VH: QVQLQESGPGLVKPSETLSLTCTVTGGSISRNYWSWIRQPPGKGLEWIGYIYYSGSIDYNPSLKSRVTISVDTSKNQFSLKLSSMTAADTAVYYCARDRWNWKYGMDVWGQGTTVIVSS VL: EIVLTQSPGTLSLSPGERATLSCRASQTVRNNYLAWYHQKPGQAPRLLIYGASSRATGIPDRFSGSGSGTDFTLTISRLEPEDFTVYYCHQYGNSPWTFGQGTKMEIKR = T

Asked: hey, is S/N (highest RLU / RLU in untreated wells), HEK293/GRLuc/MSR1 cells for this one >= 100? H1H21234N-N297Q-L4-PIII-1 (antibody, V domains shown, heavy-chain constant region (not part of this entry): N297Q (EU); linker-payload L4-PIII-1 (DIBAC-suc-GGF-PIII-1) clicked onto azido-PEG3-amine on glutamines; DAR 4) VH: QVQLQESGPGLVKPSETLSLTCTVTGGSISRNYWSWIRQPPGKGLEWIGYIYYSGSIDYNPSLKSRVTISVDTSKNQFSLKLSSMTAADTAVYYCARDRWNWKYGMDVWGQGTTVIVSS VL: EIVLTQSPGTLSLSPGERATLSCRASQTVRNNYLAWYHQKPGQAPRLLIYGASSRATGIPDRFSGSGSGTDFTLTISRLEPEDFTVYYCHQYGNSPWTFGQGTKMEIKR
Given back: T
